# Test system: CHIKV
# Format: cell-based, chikungunya virus
OBSERVED PROPERTY: Score_si1

Hs_POU3F2_2 (AAGATGAAAGTTACCACTGAA; chemistry not given here) | 2.65
Hs_CSNK1A1_5 (sense AGGGCTAAAGGCTGCAACAAA; chemistry not given here) | 2.25
Hs_PITRM1_1 (TAGGTTCTTCACGTACGGTAA; chemistry not given here) [reference compound] | -1.2
Hs_RAD51L3_5 (sense CTGGAAGAGGTAGCTCAGAAA; chemistry not given here) | 2.71
Hs_AP2M1_3 (ACGTGTGACTTCGTCCAGTTA; chemistry not given here) | 2.57

Data request: What value of Score_si1 has been reported for the following substance? Hs_CIZ1_1 (sense CAGGTGAGGTCCAGAGATATA; chemistry not given here) [reference compound]
Data returned: -1.69

Data request: Request the reported Score_si1 associated with Hs_LOXL2_3 (sense CAGGCAATGAGAAGTCCATTA; chemistry not given here)
Data returned: 2.38

Data request: Reported Score_si1 for s15796 (CTACGATTCTGGTGGAATA; chemistry not given here) : what is it?
Data returned: 1.5

Data request: Quick one: Score_si1 for Hs_GPSN2_2 (sense GTGGATGGCCTATTACATCAA; chemistry not given here) ?
Data returned: 2.86

Data request: Item Hs_ZNF261_1 (AAGGTCTTATCTGAAAGGTAA; chemistry not given here) [reference compound] has what recorded Score_si1?
Data returned: -2.35

Data request: State the recorded Score_si1 for this entry: Hs_EIF2B5_2 (CAAAGTGAAGATGAAAGGTTA; chemistry not given here)
Data returned: 1.62

Data request: If you can, please state the reported Score_si1 value of Hs_CNOT1_2 (sense CCAAGTTTGAATTTCAAGGAA; chemistry not given here) .
Data returned: 2.81

Data request: # query: Score_si1 of entry Hs_POLR1A_1 (AAGGTTGATGACTACAGTCAA; chemistry not given here)
Data returned: 1.93

Data request: Requested read-out: Score_si1. Entry: Hs_BCHE_4 (CAGAACGTTGAACTTAGCTAA; chemistry not given here)
Data returned: 0.93

Data request: Query: Score_si1; subject: Hs_NUDT1_5 (CCGCGAGGTGGACACGGTCTA; chemistry not given here)
Data returned: 2.08

Data request: Which measured Score_si1 value corresponds to Hs_PTBP1_2 (sense ATGGTATGAGTGTAATCTAAA; chemistry not given here) [reference compound] ?
Data returned: -1.35

Data request: Reported Score_si1, substance Hs_PSD3_1 (sense CTCCATTGTCTTACTAACAAA; chemistry not given here) [reference compound] : ____
Data returned: -3.63

----------
# Test system: CHIKV
# Assay type: cell-based, chikungunya virus
OBSERVED PROPERTY: Score_si1
# answer = number (no unit)

These solved cases illustrate the format of a correct answer.
Hs_FLJ20257_2 (sense CACCAAGTGGGTGCATCTGAA; chemistry not given here) | 2.26
Hs_LRIG2_1 (AGGGATGTCATTGTAAATATA; chemistry not given here) [reference compound] | -2.53
Hs_PRSS15_4 (sense CCGGGACATCATTGCCTTGAA; chemistry not given here) | 1.74

Now consider the entry below.
Data request: Can you share its Score_si1? I mean this substance: Hs_ITGB4BP_3 (sense CAGGGAGACAGAAGAAATTCT; chemistry not given here)
Data returned: 1.54
